// data source = PubChem BioAssay AID2073

Target: Voltage-dependent N-type calcium channel subunit alpha-1B (Homo sapiens) (UniProt Q00975)
Sequence (Q00975 whole entry, looked up): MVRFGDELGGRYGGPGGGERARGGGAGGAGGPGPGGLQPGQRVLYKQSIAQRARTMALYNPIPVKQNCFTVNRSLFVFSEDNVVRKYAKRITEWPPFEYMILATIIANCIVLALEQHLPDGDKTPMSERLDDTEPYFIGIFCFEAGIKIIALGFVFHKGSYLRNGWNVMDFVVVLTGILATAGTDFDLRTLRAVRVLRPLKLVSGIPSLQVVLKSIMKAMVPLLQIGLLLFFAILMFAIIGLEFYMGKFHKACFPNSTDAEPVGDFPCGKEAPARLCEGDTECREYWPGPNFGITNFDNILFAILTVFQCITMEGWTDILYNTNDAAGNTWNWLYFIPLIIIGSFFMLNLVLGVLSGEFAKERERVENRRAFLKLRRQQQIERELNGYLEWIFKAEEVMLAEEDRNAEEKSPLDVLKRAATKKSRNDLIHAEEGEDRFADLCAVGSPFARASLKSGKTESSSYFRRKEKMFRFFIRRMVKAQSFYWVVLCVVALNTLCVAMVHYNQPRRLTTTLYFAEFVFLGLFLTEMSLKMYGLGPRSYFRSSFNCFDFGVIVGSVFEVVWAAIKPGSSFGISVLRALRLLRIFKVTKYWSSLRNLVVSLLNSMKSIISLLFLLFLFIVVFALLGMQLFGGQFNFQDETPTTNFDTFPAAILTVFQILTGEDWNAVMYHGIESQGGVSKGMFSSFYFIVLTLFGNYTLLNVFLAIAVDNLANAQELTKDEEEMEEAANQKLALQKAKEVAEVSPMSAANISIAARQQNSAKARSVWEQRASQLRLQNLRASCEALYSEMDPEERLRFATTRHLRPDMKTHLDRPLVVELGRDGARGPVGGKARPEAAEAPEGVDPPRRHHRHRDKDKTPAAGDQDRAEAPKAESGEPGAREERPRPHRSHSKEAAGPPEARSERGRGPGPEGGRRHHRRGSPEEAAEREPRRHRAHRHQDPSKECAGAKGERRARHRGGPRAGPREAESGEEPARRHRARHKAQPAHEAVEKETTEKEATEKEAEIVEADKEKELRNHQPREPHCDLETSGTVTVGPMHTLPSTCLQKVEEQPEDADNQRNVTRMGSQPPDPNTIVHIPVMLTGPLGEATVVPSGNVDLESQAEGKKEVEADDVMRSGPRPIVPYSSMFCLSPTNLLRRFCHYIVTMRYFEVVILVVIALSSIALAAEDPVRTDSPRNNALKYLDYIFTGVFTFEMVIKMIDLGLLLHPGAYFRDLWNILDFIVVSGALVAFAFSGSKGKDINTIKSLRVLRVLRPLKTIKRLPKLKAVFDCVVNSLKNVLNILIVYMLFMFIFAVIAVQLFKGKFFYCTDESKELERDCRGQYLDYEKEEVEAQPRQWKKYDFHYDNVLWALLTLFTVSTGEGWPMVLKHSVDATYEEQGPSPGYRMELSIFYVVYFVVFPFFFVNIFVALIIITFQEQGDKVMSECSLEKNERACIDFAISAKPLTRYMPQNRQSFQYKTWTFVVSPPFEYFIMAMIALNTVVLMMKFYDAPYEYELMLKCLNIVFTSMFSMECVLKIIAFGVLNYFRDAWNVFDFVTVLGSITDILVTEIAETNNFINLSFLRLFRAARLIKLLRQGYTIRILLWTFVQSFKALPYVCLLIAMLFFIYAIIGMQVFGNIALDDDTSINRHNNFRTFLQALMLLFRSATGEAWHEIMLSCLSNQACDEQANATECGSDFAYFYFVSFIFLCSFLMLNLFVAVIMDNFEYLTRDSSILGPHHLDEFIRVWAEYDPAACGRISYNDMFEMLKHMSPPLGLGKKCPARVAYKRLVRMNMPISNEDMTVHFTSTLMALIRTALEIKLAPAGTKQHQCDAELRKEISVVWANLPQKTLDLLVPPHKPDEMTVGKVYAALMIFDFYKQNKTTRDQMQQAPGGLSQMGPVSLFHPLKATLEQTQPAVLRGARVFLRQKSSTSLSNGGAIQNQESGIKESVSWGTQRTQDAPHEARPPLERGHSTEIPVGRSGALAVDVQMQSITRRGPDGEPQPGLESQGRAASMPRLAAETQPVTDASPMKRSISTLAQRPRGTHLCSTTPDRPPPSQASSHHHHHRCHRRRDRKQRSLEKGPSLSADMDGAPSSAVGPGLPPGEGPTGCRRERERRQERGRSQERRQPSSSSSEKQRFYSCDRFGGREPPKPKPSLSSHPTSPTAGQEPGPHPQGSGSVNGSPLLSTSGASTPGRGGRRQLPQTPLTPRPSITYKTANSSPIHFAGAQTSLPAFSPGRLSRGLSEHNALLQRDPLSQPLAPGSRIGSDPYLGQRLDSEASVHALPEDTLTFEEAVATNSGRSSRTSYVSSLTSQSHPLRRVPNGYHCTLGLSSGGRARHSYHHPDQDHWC
Assay: disruptors of CaV2.2 binding to Mint1 – biochemical, HTRF (AID 2073)
Conditions: HTRF protein-protein interaction, Mint1-CaV2.2; at 20 µM; hits give high values
Hit rate of the full screen: of about 290,000 compounds, about 570 (0.2%) were called active. Not shown: some 1% with an inconclusive outcome. What follows is part of a selection rich in actives, with near analogues and random picks from the rest.
Quantity: inhibition

Example results:
1) CC(C)Cn1c(N)c(C(=O)COC(=O)c2cc(-c3ccco3)nc3ccccc23)c(=O)n(C)c1=O	19.7% (inactive)
2) Cc1ccc(Nc2nc(-c3ccc(C)cc3)c(CC(=O)O)s2)cc1	14.4% (inactive)
3) O=C(N/N=C\C=C\c1ccco1)c1cc(-c2ccc3ccccc3c2)n[nH]1	80.2% (inactive)

Query string: Given the entry `COc1ccc(N2Cc3ccc(C(=O)N/N=C\c4ccc(O)cc4O)cc3C2)cc1` , report its measured inhibition.
Result string: 68.9% (inactive)

Query string: Name the recorded inhibition for `COCCCN=C1NN=C(c2cc(C)n(Cc3ccco3)c2C)CS1` .
Result string: 24.8% (inactive)

Query string: Entry `O=C(O)CCNS(=O)(=O)c1ccc(Oc2ccccc2)cc1` : reported inhibition = ?
Result string: -1.3% (inactive)

Query string: Record request: inhibition value, item CC(C)(C)C1CCC(=NNC(=O)C(=O)NC2CCCCC2)CC1 (stereo unspecified)
Result string: 2.1% (inactive)
